List of Activity values.
Test system: Mus musculus
assay_summary: Effect on serum ALP lavel in ovariectomized mouse at 0.1103 mmol/kg, ip once daily for 4 weeks
Assay type: functional
Where a SMILES comes first, the peptide text is derived from it. The star is where a group is joined. Succinyl(O17-estradiol) = C[C@]12CC[C@@H]3c4ccc(O)cc4CC[C@H]3[C@@H]1CC[C@@H]2OC(=O)CCC(=O)*; X2 = C[C@]12CC[C@@H]3c4ccc(OCC(=O)*)cc4CC[C@H]3[C@@H]1CCC2=O; X1 = C[C@]12CC[C@@H]3c4ccc(OCC(=O)*)cc4CC[C@H]3[C@@H]1CCC2O
Answer by giving the amount and then stating its unit.

In the examples that follow, each entry is paired with its recorded Activity.
compound	assay_result
C[C@]12CC[C@@H]3c4ccc(OCC(=O)N[C@@H](CCCNC(=N)N)C(=O)NCC(=O)N[C@@H](CC(=O)O)C(=O)N[C@@H](CO)C(=O)O)cc4CC[C@H]3[C@@H]1CCC2O (stereo not given in full) (X1-RGDS-OH)	31.429 U/L
C[C@]12CC[C@@H]3c4ccc(OCC(=O)N[C@@H](CCCNC(=N)N)C(=O)NCC(=O)N[C@@H](CC(=O)O)C(=O)N[C@@H](Cc5ccccc5)C(=O)O)cc4CC[C@H]3[C@@H]1CCC2O (stereo not given in full) (X1-RGDF-OH)	31.529 U/L
C[C@]12CC[C@@H]3c4ccc(O)cc4CC[C@H]3[C@@H]1CC[C@@H]2O	35.286 U/L
N=C(N)NCCC[C@H](N)C(=O)NCC(=O)N[C@@H](CC(=O)O)C(=O)N[C@@H](Cc1ccccc1)C(=O)O (H-RGDF-OH)	35.643 U/L
C[C@]12CC[C@@H]3c4ccc(O)cc4CC[C@H]3[C@@H]1CC[C@@H]2OC(=O)CCC(=O)N[C@@H](CCCNC(=N)N)C(=O)NCC(=O)N[C@@H](CC(=O)O)C(=O)N[C@@H](Cc1ccccc1)C(=O)O ({Succinyl(O17-estradiol)}-RGDF-OH)	31.486 U/L

// query Activity value for entry "N=C(N)NCCC[C@H](N)C(=O)NCC(=O)N[C@@H](CC(=O)O)C(=O)N[C@@H](CO)C(=O)O"
36.643 U/L

Please give the result for CC(C)[C@H](NC(=O)[C@H](CC(=O)O)NC(=O)CNC(=O)[C@H](CCCNC(=N)N)NC(=O)CCC(=O)O[C@H]1CC[C@H]2[C@@H]3CCc4cc(O)ccc4[C@H]3CC[C@]12C)C(=O)O ({Succinyl(O17-estradiol)}-RGDV-OH) too.
31.057 U/L

Try this compound next: C[C@]12CC[C@@H]3c4ccc(OCC(=O)N[C@@H](CCCNC(=N)N)C(=O)NCC(=O)N[C@@H](CC(=O)O)C(=O)N[C@@H](Cc5ccccc5)C(=O)O)cc4CC[C@H]3[C@@H]1CCC2=O (X2-RGDF-OH)
32.407 U/L

Next: C[C@]12CC[C@@H]3c4ccc(OCC(=O)N[C@@H](CCCNC(=N)N)C(=O)NCC(=O)N[C@@H](CC(=O)O)C(=O)N[C@@H](CO)C(=O)O)cc4CC[C@H]3[C@@H]1CCC2=O (X2-RGDS-OH)
32.371 U/L

Also need CC(C)[C@H](NC(=O)[C@H](CC(=O)O)NC(=O)CNC(=O)[C@@H](N)CCCNC(=N)N)C(=O)O (H-RGDV-OH) , thanks.
35.614 U/L
